- test.target: T1, human TrkA receptor on the cell surface (human, UniProt P04629 33-796)
- T1 construct: whole, on cells; PC12-hTrkA: high density; also called hTrkA; huTrkA
- T1 sequence (P04629 33-796): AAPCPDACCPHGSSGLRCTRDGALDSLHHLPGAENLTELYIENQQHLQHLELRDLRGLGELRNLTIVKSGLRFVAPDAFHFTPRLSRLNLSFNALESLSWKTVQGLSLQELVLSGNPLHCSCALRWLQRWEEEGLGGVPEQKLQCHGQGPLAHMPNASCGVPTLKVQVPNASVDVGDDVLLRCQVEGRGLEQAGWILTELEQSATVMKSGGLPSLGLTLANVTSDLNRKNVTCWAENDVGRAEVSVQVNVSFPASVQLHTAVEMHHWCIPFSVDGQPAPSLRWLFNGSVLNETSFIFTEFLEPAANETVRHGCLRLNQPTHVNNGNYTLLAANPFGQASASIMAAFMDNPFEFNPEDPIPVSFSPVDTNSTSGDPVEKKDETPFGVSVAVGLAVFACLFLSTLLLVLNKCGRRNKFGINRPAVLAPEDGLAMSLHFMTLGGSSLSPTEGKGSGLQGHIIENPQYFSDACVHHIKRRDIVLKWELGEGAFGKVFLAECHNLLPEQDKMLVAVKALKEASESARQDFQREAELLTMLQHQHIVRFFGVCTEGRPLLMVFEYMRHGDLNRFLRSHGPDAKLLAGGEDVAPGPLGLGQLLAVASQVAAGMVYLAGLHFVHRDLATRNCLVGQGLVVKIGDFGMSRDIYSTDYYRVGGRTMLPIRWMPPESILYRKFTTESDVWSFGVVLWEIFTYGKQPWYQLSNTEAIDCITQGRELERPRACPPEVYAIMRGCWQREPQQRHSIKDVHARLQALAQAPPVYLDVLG
- test.name: flow cytometry on TF-1 cells, 4 µg/ml
- Parameters: reference not given here
Items are presented alongside their recorded Geo Mean Fluorescence.
property.name: Geo Mean Fluorescence

| binder | measured |
| --- | --- |
| BXhVH5VL5 (antibody, human IgG1, V domains shown, Human IgG1 constant regions (IgG1 expression vectors); COS-7 supernatant; also called hVH5/hVL5) VH: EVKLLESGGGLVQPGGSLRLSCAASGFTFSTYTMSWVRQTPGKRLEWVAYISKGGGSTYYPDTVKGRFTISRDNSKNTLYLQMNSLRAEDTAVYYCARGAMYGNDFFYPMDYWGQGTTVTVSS VL: QIVLTQSPATLSLSPGERATLSCSASSSVSYMHWYQQKPGQSPRLLIYTTSNLASGIPSRFSGSGSGTDYTLTISSLEPEDAADYYCHQWSSYPWTFGQGTKLEIK | 8.3 |
| BXhVH5VL2 (antibody, human IgG1, V domains shown, Human IgG1 constant regions (IgG1 expression vectors); COS-7 supernatant; also called hVH5/hVL2) VH: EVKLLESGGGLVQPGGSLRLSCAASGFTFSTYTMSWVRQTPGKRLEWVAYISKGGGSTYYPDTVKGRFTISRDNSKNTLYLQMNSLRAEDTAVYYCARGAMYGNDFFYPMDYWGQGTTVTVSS VL: EIVLTQSPATLSLSPGERATLSCSASSSVSYMHWYQQKPGQSPRLLIYTTSNLASGIPSRFSGSGSGTDFTLTISSLEPEDAADYYCHQWSSYPWTFGQGTKLEIK | 8.6 |
| BXhVH2VL2 (antibody, human IgG1, V domains shown, Human IgG1 constant regions (IgG1 expression vectors); COS-7 supernatant; also called hVH2/hVL2) VH: EVQLLESGGGLVQPGGSLRLSCAASGFTFSTYTMSWVRQTPGKRLEWVAYISKGGGSTYYPDTVKGRFTISRDNSKNTLYLQMNSLRAEDTAVYYCAKGAMYGNDFFYPMDYWGQGTTVTVSS VL: EIVLTQSPATLSLSPGERATLSCSASSSVSYMHWYQQKPGQSPRLLIYTTSNLASGIPSRFSGSGSGTDFTLTISSLEPEDAADYYCHQWSSYPWTFGQGTKLEIK | 6.4 |
| BXhVH5VL4 (antibody, human IgG1, V domains shown, Human IgG1 constant regions (IgG1 expression vectors); COS-7 supernatant; also called hVH5/hVL4) VH: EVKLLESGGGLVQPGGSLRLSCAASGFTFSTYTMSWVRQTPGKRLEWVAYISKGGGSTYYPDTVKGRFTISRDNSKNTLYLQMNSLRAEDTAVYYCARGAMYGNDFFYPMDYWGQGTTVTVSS VL: QIVLTQSPATLSLSPGERATLSCSASSSVSYMHWYQQKPGQSPRLLIYTTSNLASGIPSRFSGSGSGTDFTLTISSLEPEDAADYYCHQWSSYPWTFGGGTKLEIK | 9.1 |
